Protocol text: Drug-drug interaction study with omeprazole (staggered approach), pharmacokinetics
Recorded conditions: human, plasma, oral, 110.6 mg
Measured attribute: Tmax (min)
Report only the number, with the unit min understood.

Asked: Identify Tmax associated with the molecule Cc1nc(Nc2ncc(C(=O)Nc3c(C)cccc3Cl)s2)cc(N2CCN(CCO)CC2)n1 [dasatinib anhydrate, dasatinib]
Given back: 49.8

====

Protocol text: Drug-drug interaction study with omeprazole (staggered approach), pharmacokinetics
Recorded conditions: human, plasma, oral
Measured attribute: Tmax (h)
Report only the number, with the unit h understood.

Asked: Identify Tmax associated with the compound Cc1nc(Nc2ncc(C(=O)Nc3c(C)cccc3Cl)s2)cc(N2CCN(CCO)CC2)n1 [dasatinib anhydrate, dasatinib]
Given back: 1.25
